tested on: fresh mouse hepatocytes; test: Release of active metabolite in fresh mouse hepatocytes; type: in vitro ADME; conditions: 10 μM

{"columns": ["Molecule", "MsH AUC"],
 "data": [
  ["CC(C)OC(=O)[C@H](C)NP(=O)(OC[C@H]1O[C@@H](n2ccc(=O)[nH]c2=O)[C@](C)(Cl)[C@@H]1O)Oc1ccccc1 (single isomer, unassigned) [Compound 40ii Diastereomer 2]", "++++ (1500 < ++++)"],
  ["CC(C)OC(=O)[C@@H](C)NP(=O)(OC[C@H]1O[C@@H](n2ccc(=O)[nH]c2=O)[C@](C)(Cl)[C@@H]1O)Oc1ccccc1 (single isomer, unassigned; diastereomer 1) [Compound 40i Diastereomer 1]", "++++ (1500 < ++++)"],
  ["CC(C)OP1(=O)OC[C@H]2O[C@@H](n3ccc(=O)[nH]c3=O)[C@](C)(Cl)[C@@H]2O1 (single isomer, unassigned) [Compound 37 Diastereomer 2]", "++++ (1500 < ++++)"]
]}
